Kindly state TGI for each of the entries shown.
- Tested on: SK-OV-3 ovarian
- METHOD_NOTES: NCI tumour cell line growth inhibition, 48 h

The reported TGI of the compound `Nc1ccc2c(c1)C(=O)C(=O)c1c-2nc2ccccn12` was 7.62 µM

The reported TGI of the compound Cc1ccc2c(c1)C(C)Cc1c(ncnc1-n1cnc3ccccc31)N2C (configuration not stated) was 13.5 µM

So for C[N+](C)(C)CC1CCCC/C1=N\OC(=O)c1ccccc1 (configuration not stated) , the logged TGI turned out to be > 100 µM

Lab note: COc1ccc(C2CC(=O)c3c(O)cc(O)cc3O2)cc1O (configuration not stated) gave TGI of > 100 µM

TGI recorded for this compound, `Cc1c(NC(=S)NN)c(=O)n(-c2ccccc2)n1C` , is > 100 µM

Briefly, TGI measured for `CS/C(=N\C(=S)N(C)C)N(c1ccccc1)c1nc(=[N+](C)C)ss1` : > 100 µM

Quick note, TGI for `O=C(CN1CCN(Cc2ccccc2)CC1)c1ccc2[nH]c(=O)oc2c1` landed at > 100 µM

Reported TGI of `CC1(C)CC(=O)C(CCC(=O)/C=C/c2ccccc2)C(=O)C1` : > 100 µM

TGI for COC(=O)c1c2c(cc3c1CC1(Cc4cc5c(c(C=O)c4C1)CCCC5)C3)CCCC2 (configuration not stated) is > 100 µM

Form field TGI, entry `CCOC(=O)c1c2c(c(O)c3ccccc3c(O)n(Cc3ccc(OC)cc3)c1C)C(=O)C=CC2=O` : > 100 µM

Briefly, TGI measured for COC1=C2CC(C)CC(OC)C(O)C(C)/C=C(\C)C(OC(N)=O)C(OC)/C=C\C=C(/C)C(=O)NC(=C(C=NC(C)(C)C)C1=O)C2=O (configuration not stated) : 67.3 µM

For this compound ( `O=C1[C@@H]2C(c3ccccc3Br)=NO[C@@H]2C(=O)N1c1ccc(Cc2ccc(N3C(=O)[C@H]4C(c5ccccc5Br)=NO[C@H]4C3=O)cc2)cc1` ), measured TGI is > 100 µM
